The values you see were collected from PubChem BioAssay AID248.

- System: L1210 leukemia ip in BDF1 mice, survival T/C
- assay.overview: NCI In Vivo Anticancer Drug Screen. Data for tumor model L1210 Leukemia (intraperitoneal) in B6D2F1 (BDF1) mice
- experimental.parameters: endpoint: mean survival time; dose: 12.5 mg/kg/injection; schedule: Q01DX009 (ip); vehicle: Klucel (hydroxypropylcellulose) (HPC); higher = longer survival
Toxic doses and inconclusive results are not listed.
Quick list: T/C per entry.
property: T/C

molecule | reading
CCCCC(CC)NC(=O)c1ccc(OC)cc1 (stereo unspecified) | 106 % of control
Clc1nc2ccccc2nc1CI | 102 % of control
CC(=O)Oc1ccc(N2C(=O)C=CC2=O)cc1 | 100 % of control
FC1(F)SC2CCCCCCC2C1(F)F (stereo unspecified) | 98 % of control
CN(C(=O)CCl)c1ccccc1 | 92 % of control
COc1ccc(/C=N/n2c3ccccc3c3ccccc32)cc1OCCN(C)C | 97 % of control

* * *

Quick list: T/C per entry.
- Test system: L1210 leukemia ip in BDF1 mice, survival T/C
- assay.overview: NCI In Vivo Anticancer Drug Screen. Data for tumor model L1210 Leukemia (intraperitoneal) in B6D2F1 (BDF1) mice
- experimental.parameters: endpoint: mean survival time; dose: 200.0 mg/kg/injection; schedule: Q01DX001 (ip); vehicle: saline; higher = longer survival
Toxic doses and inconclusive results are not listed.
property: T/C

molecule | reading
Cc1cc2nncn2c2ccccc12 | 101 % of control
CCSC(C(Nc1ccc([N+](=O)[O-])cc1[N+](=O)[O-])C(O)C(O)C(O)CO)n1cc(C)c(=O)[nH]c1=O (stereo unspecified) | 100 % of control
COc1cc(C)c2ccccc2n1 | 103 % of control
[O-][N+](CCO)(CCO)Cc1ccccc1 | 103 % of control
NS(=O)(=O)CS(N)(=O)=O | 96 % of control
Cc1c(C(=O)/C=C/c2ccccc2)cc([N+](=O)[O-])cc1[N+](=O)[O-] | 100 % of control
CN(C)C(Cc1ccccc1)(C(=O)O)c1ccccc1 (stereo unspecified) | 91 % of control
Cc1cc(O)c(C(=O)/C=C/c2ccccc2)c(=O)[nH]1 | 96 % of control
Oc1c(Cl)cc(Cl)cc1/C=N/N1CCN(/N=C/c2cc(Cl)cc(Cl)c2O)CC1 | 87 % of control
CC(=O)OCCC[P+](c1ccccc1)(c1ccccc1)c1ccccc1 | 110 % of control
CNC(=S)N/N=C/C(=N\NC(=S)NC)C(O)C(O)C(O)C(O)CO (stereo unspecified) | 97 % of control

* * *

- Tested on: L1210 leukemia ip in BDF1 mice, survival T/C
- assay.overview: NCI In Vivo Anticancer Drug Screen. Data for tumor model L1210 Leukemia (intraperitoneal) in B6D2F1 (BDF1) mice
- experimental.parameters: endpoint: mean survival time; dose: 100.0 mg/kg/injection; schedule: Q01DX009 (ip); vehicle: Klucel (hydroxypropylcellulose) (HPC); higher = longer survival
Toxic doses and inconclusive results are not listed.

compound | T/C
CNC(=S)N/N=C(\C)CSC/C(C)=N/NC(=S)NC | 108 % of control
COC(=O)c1cc([N+](=O)[O-])cc2ccccc12 | 99 % of control
CCCCC(CC)NC(=O)c1ccc(OC)cc1 (configuration not stated) | 101 % of control
CCOC(=O)c1ccc(NC(=O)Nc2ccc(Cl)cc2)cc1 | 97 % of control
O=C(CCCl)N1CCN(C(=O)CCCl)CC1 | 106 % of control
Cc1cc(C(C)(C)C)cc(C)c1O | 97 % of control
O=S1(=O)Cc2ccccc2-c2ccccc2C1Cl (configuration not stated) | 98 % of control

* * *

Quick list: T/C per entry.
- Tested on: L1210 leukemia ip in BDF1 mice, survival T/C
- assay.overview: NCI In Vivo Anticancer Drug Screen. Data for tumor model L1210 Leukemia (intraperitoneal) in B6D2F1 (BDF1) mice
- experimental.parameters: endpoint: mean survival time; dose: 200.0 mg/kg/injection; schedule: Q04DX003 (ip); vehicle: saline with Tween-80; higher = longer survival
Toxic doses and inconclusive results are not listed.
property: T/C

compound | property | reading
O=C(COc1ccccc1[N+](=O)[O-])Nc1cccnc1 | T/C | 98 % of control
CC(=O)Nc1ccc(C)c2ccccc12 | T/C | 100 % of control
CCOC(=O)c1cnc(SC)nc1NCc1ccco1 | T/C | 97 % of control
COc1ccc(Cl)cc1NC(=O)Oc1ccc(C(C)=O)cc1 | T/C | 87 % of control
O=C1CCCc2c1[nH]c1ccccc21 | T/C | 98 % of control
C/C=C/c1cc(OC)cc(C2(O)OC(=O)c3c(OC)cccc32)c1OC (configuration not stated) | T/C | 94 % of control
CCN(CC)C(C(=O)Nc1ccccc1)C(=O)Nc1ccccc1 | T/C | 94 % of control
O=C1CC2=CC3C=CC(N1)C2c1ccccc13 (configuration not stated) | T/C | 93 % of control
CC1(C)CC(C)(c2ccc(O)cc2)Oc2ccccc21 (configuration not stated) | T/C | 89 % of control
CCOC(=O)C1=C(C)NC(=O)NC1c1ccc(N=Cc2cc(Br)ccc2O)cc1 (configuration not stated) | T/C | 97 % of control
O=[N+]([O-])c1ccc2nc3c(nc2c1)-c1cccc2cccc-3c12 | T/C | 97 % of control
O=C(O)c1cc2c(Br)cccc2c2cc(C(F)(F)F)ccc12 | T/C | 113 % of control

* * *

- System: L1210 leukemia ip in BDF1 mice, survival T/C
- assay.overview: NCI In Vivo Anticancer Drug Screen. Data for tumor model L1210 Leukemia (intraperitoneal) in B6D2F1 (BDF1) mice
- experimental.parameters: endpoint: mean survival time; dose: 400.0 mg/kg/injection; schedule: Q04DX003 (ip); vehicle: saline with Tween-80; higher = longer survival
Inconclusive results and toxic doses are left out.
Quick list: T/C per entry.

mol | measured.target | T/C
Nc1nc(N)n(Cc2ccc3c(c2)OCO3)n1 | L1210 leukemia ip in BDF1 mice, survival T/C | 102 % of control
CCCCCCCCCCCCCCCCOc1ccc(C)cc1 | L1210 leukemia ip in BDF1 mice, survival T/C | 97 % of control
COc1ccc(-c2sc(/N=C/c3cc(Br)cc(Br)c3O)c(C#N)c2C)cc1OC | L1210 leukemia ip in BDF1 mice, survival T/C | 90 % of control
C=C(Br)CNC(=O)Nc1ccccc1 | L1210 leukemia ip in BDF1 mice, survival T/C | 102 % of control
Cc1o[nH]c(=O)c1C | L1210 leukemia ip in BDF1 mice, survival T/C | 103 % of control
CCOC(=O)NC(C)(C)CN(C(=O)OCC)C(C)C | L1210 leukemia ip in BDF1 mice, survival T/C | 117 % of control
N#Cc1csc(CCNC(=O)c2ccccc2)n1 | L1210 leukemia ip in BDF1 mice, survival T/C | 94 % of control

* * *

- Test system: L1210 leukemia ip in BDF1 mice, survival T/C
- assay.overview: NCI In Vivo Anticancer Drug Screen. Data for tumor model L1210 Leukemia (intraperitoneal) in B6D2F1 (BDF1) mice
- experimental.parameters: endpoint: mean survival time; dose: 100.0 mg/kg/injection; schedule: Q04DX003 (ip); vehicle: Klucel (hydroxypropylcellulose) (HPC); higher = longer survival
Toxic doses and inconclusive results are not listed.
Quick list: T/C per entry.

compound | T/C
COC(=O)c1ccc(C(=O)OC)c(=O)[nH]1 | 103 % of control
O=C(CCCl)N1CCN(C(=O)CCCl)CC1 | 100 % of control
O=[N+]([O-])c1cc(/C=N\Nc2ccccn2)ccc1Cl | 112 % of control
Cc1cc(C(C)(C)C)cc(C)c1O | 95 % of control
O=C(COc1ccc(Cl)cc1)Nc1cccc(C(F)(F)F)c1 | 102 % of control
CN1CN(c2ccccc2)C2(CCN(Cc3cc(=O)c4ccccc4o3)CC2)C1=O | 102 % of control
CCOc1ccccc1NC(=O)Nc1cccc2ccccc12 | 90 % of control
CN(C)C(=S)Oc1ccc(N)cc1 | 94 % of control
CC(=O)Nc1cccc(OCCCOc2cccc(C#N)c2)c1 | 96 % of control
c1ccc(-c2ccc([Si](c3ccccc3)(c3ccc(-c4ccccc4)cc3)c3ccc(-c4ccccc4)cc3)cc2)cc1 | 89 % of control
CCCCCCCCCCCCN(CCC(=O)O)S(=O)(=O)O | 97 % of control
COC(=O)C1C2OC3C(OC(=O)C31)C2Br (configuration not stated) | 91 % of control

* * *

- System: L1210 leukemia ip in BDF1 mice, survival T/C
- assay.overview: NCI In Vivo Anticancer Drug Screen. Data for tumor model L1210 Leukemia (intraperitoneal) in B6D2F1 (BDF1) mice
- experimental.parameters: endpoint: mean survival time; dose: 100.0 mg/kg/injection; schedule: Q01DX001 (ip); vehicle: saline; higher = longer survival
Inconclusive results and toxic doses are left out.
Quick list: T/C per entry.

compound | measured.target | T/C
c1ccc2occc2c1 | L1210 leukemia ip in BDF1 mice, survival T/C | 103 % of control
ClC(C[n+]1ccccc1)c1ccccc1 (configuration not stated) | L1210 leukemia ip in BDF1 mice, survival T/C | 100 % of control
O=[N+]([O-])c1ccccc1N=Nc1c(O)[nH]c2ccc(Cl)cc12 | L1210 leukemia ip in BDF1 mice, survival T/C | 95 % of control
O=[N+]([O-])c1ccc(Sc2ccsc2)c([N+](=O)[O-])c1 | L1210 leukemia ip in BDF1 mice, survival T/C | 101 % of control
C[CH2][Hg][Cl] | L1210 leukemia ip in BDF1 mice, survival T/C | 97 % of control
CC(=O)Nc1ccc(S(=O)(=O)O)c(OC(C)=O)c1 | L1210 leukemia ip in BDF1 mice, survival T/C | 100 % of control
FC(F)OC(F)(F)C(F)Cl (configuration not stated) | L1210 leukemia ip in BDF1 mice, survival T/C | 89 % of control
